Source of measurements: patent US20250163038A1

- Study target: Recombinant human c-Cbl (aa 47-435) (Homo sapiens)
- Sequence (P22681 47-435): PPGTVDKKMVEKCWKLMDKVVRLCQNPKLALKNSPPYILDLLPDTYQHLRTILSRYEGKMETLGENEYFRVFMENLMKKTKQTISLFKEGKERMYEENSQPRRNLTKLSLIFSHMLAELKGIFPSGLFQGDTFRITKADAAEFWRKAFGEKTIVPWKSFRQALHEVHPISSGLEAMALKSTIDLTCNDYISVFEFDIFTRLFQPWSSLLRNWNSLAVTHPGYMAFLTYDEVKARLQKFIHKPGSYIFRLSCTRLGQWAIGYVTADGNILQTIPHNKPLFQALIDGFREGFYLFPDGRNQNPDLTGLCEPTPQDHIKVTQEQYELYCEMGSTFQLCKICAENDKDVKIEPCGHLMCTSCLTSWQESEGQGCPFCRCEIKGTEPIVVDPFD
- Protocol: c-Cbl Biochemical Assay (TR-FRET)
- Conditions used: hc-Cbl Biochemical Assay (TR-FRET); read-out: TR-FRET hcCbl IC50
pIC50: −log10 of the molar value.
Property label: pIC50

Compound: Cn1cnnc1-c1cc(F)ccc1-c1cccc(-c2nc3cc(CNC[C@@]4(C)CCO4)cc(C(F)(F)F)c3o2)c1
Result: > 6.70

Compound: C[C@@H](N[C@@H]1CCC[C@@H]1O)c1cc(C(F)(F)F)c2oc(-c3cccc(-c4ccc(F)cc4-c4nncn4C)c3)nc2c1
Result: > 6.70

Compound: Cn1cnnc1-c1cc(F)ccc1-c1cc(-c2nc3cc(CO)c(F)c(F)c3o2)nc(C2CC2)c1
Result: 6.00 to 6.70

Compound: Cc1cc(CNCC2(O)CCC2)cc2nc(-c3cc(-c4ccc(F)cc4-c4nncn4C)cc(C4CC4)n3)oc12
Result: > 6.70

Compound: COCCNC(COC)c1cc(C)c2oc(-c3cccc(-c4ccc(F)cc4-c4nncn4C)c3)nc2c1 (stereo not drawn)
Result: 6.00 to 6.70

Please tell me: pIC50 of Cn1cnnc1-c1cc(F)ccc1-c1cccc(-c2nc3cc(CNCC4CCC4)c(F)c(F)c3o2)c1 , system Recombinant human c-Cbl (aa 47-435) (Homo sapiens)?
> 6.70

----------
- Study target: Recombinant human c-Cbl (aa 47-435) (Homo sapiens)
- Protocol: c-Cbl Biochemical Assay (TR-FRET)
- Conditions used: hc-Cbl Biochemical Assay (TR-FRET); read-out: TR-FRET hcCbl IC50
pIC50: −log10 of the molar value.
Property label: pIC50

Some entries whose results are on file:
Molecule: Cn1cnnc1-c1cc(F)ccc1-c1cc(-c2nc3cc(CNCC4(F)CCC4)cc(F)c3o2)nc(C2CC2)c1 [AFJ-1]
pIC50: > 6.70

Molecule: Cn1cnnc1-c1cc(F)ccc1-c1cccc(-c2nc3cc(CNCC(C)(C)C#N)cc(C(F)(F)F)c3o2)c1 [DN-2]
pIC50: > 6.70

Molecule: Cn1cnnc1-c1cc(F)ccc1-c1cc(-c2nc3cc(CN4CC(F)C4)cc(F)c3o2)nc(C2CC2)c1 [AFP-3]
pIC50: 6.00 to 6.70

Given the entry Cc1cc(CNCC2CCC2)cc2nc(-c3cccc(-c4ccc(F)cc4-c4nncn4C)c3)oc12 [GU-1] , report its measured pIC50.
> 6.70

Repeat with Cn1cnnc1-c1cc(F)ccc1-c1cccc(-c2nc3cc(CN4CCCC[C@H]4CO)cc(C(F)(F)F)c3o2)c1 [JB-2]
5.00 to 6.00

Next up: C[C@H](O)CNCc1cc(C(F)(F)F)c2oc(-c3cccc(-c4ccc(F)cc4-c4nncn4C)c3)nc2c1 [AM-2]
5.00 to 6.00

// same read-out, input: Cn1cnnc1-c1cc(F)ccc1-c1cc(-c2nc3cc(CO)cc(F)c3o2)nc(C2CC2)c1 [AFA-2]
6.00 to 6.70

Continue with Cn1cnnc1-c1cc(F)ccc1-c1cccc(-c2nc3cc(CNCC4COC4)cc(C(F)(F)F)c3o2)c1 [GB-2]
> 6.70

----------
- Study target: Recombinant human Cbl-b (aa 36-427) (Homo sapiens)
- Protocol: Cbl-b Biochemical Assay (TR-FRET)
- Conditions used: read-out: TR-FRET hCbl-b IC50
Property label: IC50

Solved entries (count: 5):
Compound: Cn1cnnc1-c1cc(F)ccc1-c1cccc(-c2nc3cccc(C(F)(F)F)c3o2)c1
IC50: 200 to 1000 nM
--
Compound: COCCNCc1cc2nc(-c3cc(-c4ccc(F)cc4-c4nncn4C)cc(C4CC4)n3)oc2c(F)c1F
IC50: < 200 nM
--
Compound: C[C@@H]1CCC[C@@H](NCc2cc(C(F)(F)F)c3oc(-c4cccc(-c5ccc(F)cc5-c5nncn5C)c4)nc3c2)C1 (racemic)
IC50: < 200 nM
--
Compound: Cn1cnnc1-c1cc(F)ccc1-c1cccc(-c2nc3cc(CNCC4CC4)cc(C(F)(F)F)c3o2)c1
IC50: < 200 nM
--
Compound: Cn1cnnc1-c1cc(F)ccc1-c1cc(-c2nc3cc(CNCC4CCC4)c(F)c(F)c3o2)nc(C2CC2)c1
IC50: < 200 nM

Consider the compound COc1cc(CNCC2CCC2)cc2nc(-c3cccc(-c4ccc(F)cc4-c4nncn4C)c3)oc12 and give its measured IC50.
< 200 nM

Thanks! And Cn1cnnc1-c1ccccc1-c1cccc(-c2nc3cc(C(C)(C)O)cc(C(F)(F)F)c3o2)c1 ?
10000 to 50000 nM

// same read-out, input: Cn1cnnc1-c1ccccc1-c1cccc(-c2nc3cc(CN4CCC5(CC5)C4)cc(C(F)(F)F)c3[nH]2)c1
200 to 1000 nM

Try this compound too: Cn1cnnc1-c1cc(F)ccc1-c1cccc(-c2nc3cc(CNC4CCC4)cc(C(F)(F)F)c3o2)c1
< 200 nM

And what about the compound CO[C@H]1CCCC1NCc1cc(C(F)(F)F)c2oc(-c3cccc(-c4ccc(F)cc4-c4nncn4C)c3)nc2c1 (stereo in doubt) ?
< 200 nM

CO[C@H]1CCN(Cc2cc(C(F)(F)F)c3oc(-c4cccc(-c5ccc(F)cc5-c5nncn5C)c4)nc3c2)C1 ?
< 200 nM

What do we get for Cn1cnnc1CC1(c2cccc(-c3nc4cc(Br)cc(C(F)(F)F)c4[nH]3)c2)COC1 ?
10000 to 50000 nM

What about Cn1cnnc1-c1cc(F)ccc1-c1cccc(-c2nc3cc(CNCC4(O)COC4)cc(C(F)(F)F)c3o2)c1 ?
< 200 nM

Can you check COC1(CN[C@H](C)c2cc(F)c3oc(-c4cc(-c5ccc(F)cc5-c5nncn5C)cc(C5CC5)n4)nc3c2)CCC1 next?
< 200 nM

----------
// reported IC50 per item
- Study target: Recombinant human Cbl-b (aa 36-427) (Homo sapiens, UniProt Q13191)
- Sequence (Q13191 36-427): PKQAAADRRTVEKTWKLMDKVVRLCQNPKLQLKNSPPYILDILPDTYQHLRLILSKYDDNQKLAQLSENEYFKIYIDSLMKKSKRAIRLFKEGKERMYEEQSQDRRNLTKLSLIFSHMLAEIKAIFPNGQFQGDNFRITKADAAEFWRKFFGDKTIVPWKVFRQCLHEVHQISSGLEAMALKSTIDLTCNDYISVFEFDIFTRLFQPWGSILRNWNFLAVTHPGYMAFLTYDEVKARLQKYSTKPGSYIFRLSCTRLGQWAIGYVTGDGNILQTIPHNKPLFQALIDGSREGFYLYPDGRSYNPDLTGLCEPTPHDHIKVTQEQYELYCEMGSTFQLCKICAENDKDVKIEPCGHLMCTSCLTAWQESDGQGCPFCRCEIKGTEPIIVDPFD
- Protocol: Cbl-b Biochemical Assay (TR-FRET)
- Conditions used: read-out: TR-FRET hCbl-b IC50

Compound: Cn1cnnc1-c1cc(F)ccc1-c1cccc(-c2nc3cc(CN[C@@H]4CCC[C@@H]4O)cc(C(F)(F)F)c3[nH]2)c1 [BM-2]
IC50: < 200 nM

I am curious: what IC50 value has been reported for C[C@H]1CCCN(Cc2cc(C(F)(F)F)c3oc(-c4cc(-c5ccc(F)cc5-c5nncn5C)cc(C5CC5)n4)nc3c2)C1 [ADO-1] ?
< 200 nM

Now the compound COc1cc(CN[C@@H](C)C2CCC2)cc2nc(-c3cccc(-c4ccc(F)cc4-c4nncn4C)c3)oc12 [GF-2]
< 200 nM

Also, Cn1cnnc1-c1cc(F)ccc1-c1cc(-c2nc3cc(CO)cc(F)c3o2)nc(C2CC2)c1 [AFA-2] please.
200 to 1000 nM

Moving on to the next compound: Cn1cnnc1-c1cc(F)ccc1-c1cccc(-c2nc3cc(CNCC4CCC4)cc(C(F)(F)F)c3o2)c1 [EM-2]
< 200 nM

Continue with Cn1cnnc1-c1cc(F)ccc1-c1cccc(-c2nc3cc(CN[C@@H]4CCC[C@@H]4O)c(F)c(F)c3o2)c1 [HX-8]
< 200 nM

Queued: Cn1cnnc1-c1cc(F)ccc1-c1cccc(-c2nc3cc(CN4CCC5(CC4)CC5)cc(C(F)(F)F)c3o2)c1 [AG-2]
< 200 nM

----------
- Study target: Recombinant human c-Cbl (aa 47-435) (Homo sapiens)
- Protocol: c-Cbl Biochemical Assay (TR-FRET)
- Conditions used: hc-Cbl Biochemical Assay (TR-FRET); read-out: TR-FRET hcCbl IC50
pIC50: −log10 of the molar value.
Property label: pIC50

Here is how some compounds turned out for pIC50.
Compound: Cn1cnnc1-c1cc(F)ccc1-c1cccc(-c2nc3cc(CNCC4(O)COC4)cc(C(F)(F)F)c3[nH]2)c1 [BQ-1]
Result: 5.00 to 6.00
--
Compound: Cn1cnnc1-c1cc(C#N)ccc1-c1cccc(-c2nc3cccc(C(F)(F)F)c3[nH]2)c1 [CB-1]
Result: 4.30 to 5.00
--
Compound: C=Cc1cc(C(F)(F)F)c2oc(-c3cccc(-c4ccc(F)cc4-c4nncn4C)c3)nc2c1 (racemic) [DL-1]
Result: 5.00 to 6.00
--
Compound: Cc1cc(CNCC2(F)CCC2)cc2nc(-c3cccc(-c4ccc(F)cc4-c4nncn4C)c3)oc12 [IC-1]
Result: > 6.70
--
Compound: CNCc1cc2nc(-c3cc(-c4ccc(F)cc4-c4nncn4C)cc(C4CC4)n3)oc2c(F)c1F [AHA-2]
Result: 6.00 to 6.70

Turning now to a further record.
Request the reported pIC50 associated with COCCNCc1cc(C(F)(F)F)c2oc(-c3cccc(-c4ccc(F)cc4-c4nncn4C)c3)nc2c1 [AA-2]
5.00 to 6.00
